Numbers sourced from PubChem BioAssay (NCATS).

# Tested on: CP238
# assay notes: qHTS profiling for inhibitors of Plasmodium falciparum proliferation (AID 504749); further: nearly all actives have a fitted effect of over 60% in size
# details: P. falciparum in erythrocytes, SYBR Green DNA, 72 h; series mostly up to 28.7 µM
# Experimental: NIH National Institute of Allergy and Infectious Diseases [NIAID] NIH Chemical Genomics Center [NCGC] […] Because mature erythrocytes lack DNA, only Plasmodium-derived DNA is detected. NCGC Assay Protocol Summary: The SYBR Green viability assay was adapted from a method described previously (Plouffe et al., 2008). […] The following morning, fluorescence intensity at 485(14) nm excitation and 535(25) nm emission wavelengths was measured on an EnVision (Perkin Elmer) plate reader. […]
Inconclusive results are not listed. The source made the active and inactive calls. The call rests on the fitted dose curve; in most records, active means well fitted inhibition curve with a large enough effect; inconclusive means small, poorly fitted or top-dose-only effect; inactive means flat fitted curve, though single readings scatter.
Field 'call' accepts active, inactive

1) CN(C)CCCN1c2ccccc2Sc2ccc(C(F)(F)F)cc21 :: inactive
2) O=C(O)CP(=O)(O)O :: inactive

Input: Call for entry CCN(CC)CC(=O)Nc1c(C)cccc1C :
Output: inactive

Input: Call for entry O=C(O)CN(CCOCCOCCN(CC(=O)O)CC(=O)O)CC(=O)O :
Output: inactive

###

# Tested on: P93_24
# assay notes: qHTS profiling for inhibitors of Plasmodium falciparum proliferation (AID 504749); further: nearly all actives have a fitted effect of over 60% in size
# details: P. falciparum in erythrocytes, SYBR Green DNA, 72 h; series mostly up to 28.7 µM
Records with an inconclusive call do not appear. The source made the active and inactive calls. Calls follow the shape of the dose curve; as a rule, active = well fitted inhibition curve with a large enough effect; inconclusive = small, poorly fitted or top-dose-only effect; inactive = flat fitted curve, though single readings scatter.
Field 'call' accepts True for active, False for inactive

1. COc1cc2c(cc1OC)-c1cc(=Nc3c(C)cc(C)cc3C)n(C)c(=O)n1CC2 :: True

Input: Call for entry NC(Cc1ccc(Cl)cc1)C(=O)O (centres undefined) :
Output: False

Input: Call for entry COc1cc(C(=O)OCCCN2CCCN(CCCOC(=O)c3cc(OC)c(OC)c(OC)c3)CC2)cc(OC)c1OC :
Output: True

Input: Call for entry C=CCc1ccccc1OCC(O)CNC(C)C (centres undefined) :
Output: True

Input: Call for entry CN(C)C(=O)Oc1cccc([N+](C)(C)C)c1 :
Output: False

Input: Call for entry CCN(CC)CCNC(=O)c1ccc(NC(C)=O)cc1 :
Output: False

Input: Call for entry CC(N=C(NC#N)Nc1ccncc1)C(C)(C)C (centres undefined) :
Output: False

Input: Call for entry Cc1cc(C)c(/C=C2\C(=O)Nc3ccccc32)[nH]1 :
Output: False

Input: Call for entry CC(=O)[C@]1(O)Cc2c(O)c3c(c(O)c2[C@@H](O[C@H]2C[C@H](N)[C@H](O)[C@H](C)O2)C1)C(=O)c1ccccc1C3=O :
Output: True

###

# Test system: ICS
# assay notes: qHTS profiling for inhibitors of Plasmodium falciparum proliferation (AID 504749); further: nearly all actives have a fitted effect of over 60% in size
# details: P. falciparum in erythrocytes, SYBR Green DNA, 72 h; series mostly up to 28.7 µM
Results filed as inconclusive are left out. The source made the active and inactive calls. Calls follow the shape of the dose curve; as a rule, active = well fitted inhibition curve with a large enough effect; inconclusive = small, poorly fitted or top-dose-only effect; inactive = flat fitted curve, though single readings scatter.
Field 'call' accepts y (active), n (inactive)

Below are worked cases with known answers.
1. O=C(O)CP(=O)(O)O :: n
2. CN(C)CCOC(=O)COc1ccc(Cl)cc1 :: n
3. C[C@H](CS)C(=O)N1CCC[C@H]1C(=O)O :: n

Input: Call for entry CC[N+](C)(C)c1cccc(O)c1 :
Output: n

Input: Call for entry CC(=O)Nc1nnc(S(N)(=O)=O)s1 :
Output: n

Input: Call for entry Cc1scc2c1N(C(=O)CN1CCN(C)CC1)c1ccccc1NC2=O :
Output: n

Input: Call for entry COCC(=O)O[C@]1(CCN(C)CCCc2nc3ccccc3[nH]2)CCc2cc(F)ccc2[C@@H]1C(C)C :
Output: y

Input: Call for entry CCCC(C(=O)OCCN(CC)CC)(c1ccccc1)c1ccccc1 :
Output: y

Input: Call for entry CCn1ccnc1CC1COc2ccccc2O1 (stereo unspecified) :
Output: n

Input: Call for entry CCNC(=O)N1CCN(CCCC(c2ccc(F)cc2)c2ccc(F)cc2)CC1 :
Output: y

Input: Call for entry Nc1c2c(nc3ccccc13)CCCC2O (stereo unspecified) :
Output: n
